Recorded aptazyme ON/OFF ratio for the following variants
B1: Pistol ribozyme (parent)
chain: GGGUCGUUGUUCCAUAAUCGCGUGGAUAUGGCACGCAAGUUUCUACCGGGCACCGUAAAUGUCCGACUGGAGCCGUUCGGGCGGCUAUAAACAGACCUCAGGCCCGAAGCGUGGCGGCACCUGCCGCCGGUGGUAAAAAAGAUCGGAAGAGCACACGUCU

# Variants of: B1
# experimentDescription: aptazyme ON/OFF ratio, guanine; higher = stronger switching; co-transcriptional cleavage with and without guanine
A bare number is all that is needed in reply.

Take a look at these entries with their results.
| change | aptazyme ON/OFF ratio |
| --- | --- |
| U7G U8A G9A C12G | 1.18 |
| U7C U8G G9A U11A C12U C13A | 1.19 |
| U7C U8C G9C U10A C12A C13A | 1.09 |
| U7G U8C U11A C13G | 1.03 |
| U7C U8A G9U U10A U11C C12A C13U | 1.22 |
| U7A G9U U11A C12G C13G | 1.12 |
| U7C U8C G9U U10C C12G C13G | 1.11 |
| U7G U8C G9A U10C U11C | 1.16 |
| U7G U8A G9C C12A C13G | 1.03 |
| U7C U8C G9A U10G C12U | 1.46 |

Next up:
Task: Tell me measured aptazyme ON/OFF ratio for U8G G9U U10A U11G C12U C13G please.
Result: 1.1
